Measured IC50 on Prolyl endopeptidase, Prolyl Oligopeptidase (hPREP) (Homo sapiens (Human)) follows.
Sequence (P48147 whole entry): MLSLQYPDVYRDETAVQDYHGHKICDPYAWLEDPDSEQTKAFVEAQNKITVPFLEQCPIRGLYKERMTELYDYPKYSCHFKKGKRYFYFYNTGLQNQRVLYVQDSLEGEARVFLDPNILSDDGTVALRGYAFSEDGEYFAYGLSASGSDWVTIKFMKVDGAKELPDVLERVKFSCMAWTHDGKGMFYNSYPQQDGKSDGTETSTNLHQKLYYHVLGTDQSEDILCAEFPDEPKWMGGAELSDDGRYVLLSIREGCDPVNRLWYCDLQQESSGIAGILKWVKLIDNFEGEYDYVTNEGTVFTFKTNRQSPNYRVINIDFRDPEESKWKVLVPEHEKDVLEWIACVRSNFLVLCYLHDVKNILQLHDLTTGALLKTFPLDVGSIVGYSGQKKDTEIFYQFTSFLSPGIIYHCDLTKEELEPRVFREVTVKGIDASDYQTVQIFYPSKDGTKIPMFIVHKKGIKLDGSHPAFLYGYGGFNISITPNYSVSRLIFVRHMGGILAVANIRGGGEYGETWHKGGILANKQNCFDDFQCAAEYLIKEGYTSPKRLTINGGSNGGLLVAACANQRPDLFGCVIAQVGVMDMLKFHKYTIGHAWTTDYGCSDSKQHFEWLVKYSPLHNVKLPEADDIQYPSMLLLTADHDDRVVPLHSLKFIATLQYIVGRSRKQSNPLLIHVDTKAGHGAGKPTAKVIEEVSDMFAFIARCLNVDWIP
readout_type: IC50 (nM)

compound=Cc1ccc(-c2ccc3nccc(C(=O)NCC(=O)N4CSC[C@H]4C#N)c3c2)cn1 assay_system="Prolyl endopeptidase, Prolyl Oligopeptidase (hPREP) (Homo sapiens (Human))" readout_type=IC50 val=360
compound=CO[C@H]1CCN(c2ccc3nccc(C(=O)NCC(=O)N4CSC[C@H]4C#N)c3c2)C1 assay_system="Prolyl endopeptidase, Prolyl Oligopeptidase (hPREP) (Homo sapiens (Human))" readout_type=IC50 val=430
compound="C[C@@H]1CN(c2ccc3nccc(C(=O)NCC(=O)N4CSC[C@H]4C#N)c3c2)C[C@H]1C (single isomer, unassigned) [Example 225]" assay_system="Prolyl endopeptidase, Prolyl Oligopeptidase (hPREP) (Homo sapiens (Human))" readout_type=IC50 val=470
compound=CC1(C)CN(c2ccc3nccc(C(=O)NCC(=O)N4CSC[C@H]4C#N)c3c2)CCO1 assay_system="Prolyl endopeptidase, Prolyl Oligopeptidase (hPREP) (Homo sapiens (Human))" readout_type=IC50 val=1200
compound=CO[C@@H]1CN(c2ccc3nccc(C(=O)NCC(=O)N4CSC[C@H]4C#N)c3c2)[C@H]1C assay_system="Prolyl endopeptidase, Prolyl Oligopeptidase (hPREP) (Homo sapiens (Human))" readout_type=IC50 val=510
compound=N#C[C@@H]1CSCN1C(=O)CNC(=O)c1ccnc2ccc(N3C4CCC3COC4)cc12 assay_system="Prolyl endopeptidase, Prolyl Oligopeptidase (hPREP) (Homo sapiens (Human))" readout_type=IC50 val=790
compound=CC1(C)COC12CN(c1ccc3nccc(C(=O)NCC(=O)N4CSC[C@H]4C#N)c3c1)C2 assay_system="Prolyl endopeptidase, Prolyl Oligopeptidase (hPREP) (Homo sapiens (Human))" readout_type=IC50 val=570
compound=CC1(C)Cc2c(-c3ccc4nccc(C(=O)NCC(=O)N5CSC[C@H]5C#N)c4c3)cnn2C1 assay_system="Prolyl endopeptidase, Prolyl Oligopeptidase (hPREP) (Homo sapiens (Human))" readout_type=IC50 val=740
compound="C[C@H]1N(c2ccc3nccc(C(=O)NCC(=O)N4CSC[C@H]4C#N)c3c2)CC1(F)F (mixture of isomers)" assay_system="Prolyl endopeptidase, Prolyl Oligopeptidase (hPREP) (Homo sapiens (Human))" readout_type=IC50 val=280
compound=N#C[C@@H]1CSCN1C(=O)CNC(=O)c1ccnc2ccc(N3CCCCC3)cc12 assay_system="Prolyl endopeptidase, Prolyl Oligopeptidase (hPREP) (Homo sapiens (Human))" readout_type=IC50 val=450
compound=C[C@H]1CCN(c2ccc3nccc(C(=O)NCC(=O)N4CSC[C@H]4C#N)c3c2)C1 assay_system="Prolyl endopeptidase, Prolyl Oligopeptidase (hPREP) (Homo sapiens (Human))" readout_type=IC50 val=300
compound=N#C[C@@H]1CSCN1C(=O)CNC(=O)c1ccnc2ccc(N3CC4(CCC4)C3)cc12 assay_system="Prolyl endopeptidase, Prolyl Oligopeptidase (hPREP) (Homo sapiens (Human))" readout_type=IC50 val=160
compound=N#C[C@@H]1CSCN1C(=O)CNC(=O)c1ccnc2ccc(N3CC(C(F)F)C3)cc12 assay_system="Prolyl endopeptidase, Prolyl Oligopeptidase (hPREP) (Homo sapiens (Human))" readout_type=IC50 val=580
compound=N#C[C@@H]1CSCN1C(=O)CNC(=O)c1ccnc2ccc(N3CC4(CC4)C3)cc12 assay_system="Prolyl endopeptidase, Prolyl Oligopeptidase (hPREP) (Homo sapiens (Human))" readout_type=IC50 val=240
compound=N#C[C@@H]1CSCN1C(=O)CNC(=O)c1ccnc2ccc(N3CC4(CCCC4)C3)cc12 assay_system="Prolyl endopeptidase, Prolyl Oligopeptidase (hPREP) (Homo sapiens (Human))" readout_type=IC50 val=1000
compound=CS(=O)(=O)C[C@@H]1CN(c2ccc3nccc(C(=O)NCC(=O)N4CSC[C@H]4C#N)c3c2)CCO1 assay_system="Prolyl endopeptidase, Prolyl Oligopeptidase (hPREP) (Homo sapiens (Human))" readout_type=IC50 val=1800

====

This listing pairs compounds with measured solubility.
experiment: Kinetic solubility; settings: kinetic from dmso stock, Solubility, kinetic solubility; n = 1 or average of n = 2-3
readout_type: solubility

smiles_text=N#C[C@@H]1CSCN1C(=O)CNC(=O)c1ccnc2ccc(N3CCC[C@H]3C(F)(F)F)cc12 readout_type=solubility val="5.9 µM"
smiles_text=COC[C@H]1[C@H](C)OCCN1c1ccc2nccc(C(=O)NCC(=O)N3CSC[C@H]3C#N)c2c1 readout_type=solubility val="> 1000 µM"
smiles_text=C[C@H]1COC[C@H](C)N1c1ccc2nccc(C(=O)NCC(=O)N3CSC[C@H]3C#N)c2c1 readout_type=solubility val="> 1000 µM"
smiles_text=N#C[C@@H]1CSCN1C(=O)CNC(=O)c1ccnc2ccc(N3CCCC[C@H](F)C3)cc12 readout_type=solubility val="160 µM"
smiles_text=N#C[C@@H]1CSCN1C(=O)CNC(=O)c1ccnc2ccc(-n3ccc4cc(F)ccc43)cc12 readout_type=solubility val="0.92 µM"
smiles_text=Cc1cc(C(F)(F)F)nn1-c1ccc2nccc(C(=O)NCC(=O)N3CSC[C@H]3C#N)c2c1 readout_type=solubility val="490 µM"
smiles_text=N#C[C@@H]1CSCN1C(=O)CNC(=O)c1ccnc2c(Cl)cc(N3CCOCC3)cc12 readout_type=solubility val="170 µM"
smiles_text=N#C[C@@H]1CSCN1C(=O)CNC(=O)c1ccnc2ccc(N3CCSCC3)cc12 readout_type=solubility val="700 µM"

====

This listing pairs molecules with measured IC50.
target: FAP (Homo sapiens (Human), UniProt Q12884); assay: hFAP inhibition assay; type: biochemical; settings: hFAP […], Ala-Pro-AMC 20 μM; n = 1 or geometric mean n = 2-3
Sequence (Q12884 38-760): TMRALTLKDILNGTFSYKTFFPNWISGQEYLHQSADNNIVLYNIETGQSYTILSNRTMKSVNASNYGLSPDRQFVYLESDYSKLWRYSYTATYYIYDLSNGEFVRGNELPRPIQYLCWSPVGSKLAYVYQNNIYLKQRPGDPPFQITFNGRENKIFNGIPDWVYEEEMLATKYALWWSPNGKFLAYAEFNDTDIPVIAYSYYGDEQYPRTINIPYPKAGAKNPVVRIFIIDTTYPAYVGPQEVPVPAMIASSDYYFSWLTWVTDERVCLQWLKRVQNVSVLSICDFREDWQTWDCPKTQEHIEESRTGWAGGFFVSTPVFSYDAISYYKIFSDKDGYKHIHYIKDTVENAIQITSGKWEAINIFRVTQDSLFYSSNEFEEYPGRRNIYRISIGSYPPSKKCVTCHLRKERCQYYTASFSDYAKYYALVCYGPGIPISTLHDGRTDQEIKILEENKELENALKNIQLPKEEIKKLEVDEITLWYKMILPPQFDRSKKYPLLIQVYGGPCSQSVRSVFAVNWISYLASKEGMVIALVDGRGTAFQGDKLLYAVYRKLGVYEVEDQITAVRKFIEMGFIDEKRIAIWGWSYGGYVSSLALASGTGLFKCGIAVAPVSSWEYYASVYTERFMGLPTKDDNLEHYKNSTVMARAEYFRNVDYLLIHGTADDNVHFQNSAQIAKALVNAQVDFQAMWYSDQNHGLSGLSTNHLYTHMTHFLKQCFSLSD
readout_type: IC50

smiles_text=Cc1ncccc1-c1ccc2nccc(C(=O)NCC(=O)N3CSC[C@H]3C#N)c2c1 readout_type=IC50 val="0.45 nM"
smiles_text=N#C[C@@H]1CSCN1C(=O)CNC(=O)c1ccnc2ccc(N3CCOCC3)c(Cl)c12 readout_type=IC50 val="0.38 nM"
smiles_text=Cc1nc(C)c(-c2ccc3nccc(C(=O)NCC(=O)N4CSC[C@H]4C#N)c3c2)o1 readout_type=IC50 val="0.41 nM"
smiles_text=N#C[C@@H]1CSCN1C(=O)CNC(=O)c1ccnc2ccc(N3CCC(F)(F)CC3)cc12 readout_type=IC50 val="0.47 nM"
smiles_text=N#C[C@@H]1CSCN1C(=O)CNC(=O)c1ccnc2ccc(N3CC(C(F)(F)F)C3)cc12 readout_type=IC50 val="0.31 nM"
smiles_text=CC1(C)CCCN1c1ccc2nccc(C(=O)NCC(=O)N3CSC[C@H]3C#N)c2c1 readout_type=IC50 val="0.26 nM"
smiles_text=N#C[C@@H]1CSCN1C(=O)CNC(=O)c1ccnc2ccc(N3CCCC(F)(F)C3)cc12 readout_type=IC50 val="0.24 nM"
smiles_text=N#C[C@@H]1CSCN1C(=O)CNC(=O)c1ccnc2ccc(N3CC4(CC4)C[C@@H]3CF)cc12 readout_type=IC50 val="0.23 nM"
smiles_text=COCC1(C)CN(c2ccc3nccc(C(=O)NCC(=O)N4CSC[C@H]4C#N)c3c2)C1 readout_type=IC50 val="0.13 nM"
smiles_text=N#C[C@@H]1CSCN1C(=O)CNC(=O)c1ccnc2ccc(N3CC(C(F)F)C3)cc12 readout_type=IC50 val="0.26 nM"

====

molecular target: hFAP (M39-A757) (Homo sapiens (Human), UniProt Q12884); test: hFAP binding assay (surface plasmon resonance); conditions: SPR, 20° C., single cycle kinetics
Sequence (Q12884 39-757): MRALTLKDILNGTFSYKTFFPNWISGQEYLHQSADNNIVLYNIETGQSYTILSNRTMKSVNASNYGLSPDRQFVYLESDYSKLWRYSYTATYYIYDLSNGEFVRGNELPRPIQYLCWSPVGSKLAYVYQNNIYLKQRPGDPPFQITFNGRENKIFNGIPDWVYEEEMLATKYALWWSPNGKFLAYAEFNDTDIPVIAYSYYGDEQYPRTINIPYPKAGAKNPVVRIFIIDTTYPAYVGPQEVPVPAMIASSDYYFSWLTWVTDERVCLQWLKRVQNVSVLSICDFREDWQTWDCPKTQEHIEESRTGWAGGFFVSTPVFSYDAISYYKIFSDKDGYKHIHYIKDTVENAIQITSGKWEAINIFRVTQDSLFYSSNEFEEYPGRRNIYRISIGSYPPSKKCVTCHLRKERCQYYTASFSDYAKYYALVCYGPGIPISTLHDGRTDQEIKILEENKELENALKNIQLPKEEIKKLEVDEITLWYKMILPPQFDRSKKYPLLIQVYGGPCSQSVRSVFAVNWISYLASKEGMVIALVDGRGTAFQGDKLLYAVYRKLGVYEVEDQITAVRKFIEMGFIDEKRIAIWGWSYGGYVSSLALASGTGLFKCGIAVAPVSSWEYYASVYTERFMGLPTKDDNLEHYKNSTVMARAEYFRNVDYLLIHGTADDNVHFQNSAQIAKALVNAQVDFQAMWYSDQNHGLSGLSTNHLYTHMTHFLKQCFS
readout_type: hFAP Binding assay k(on) (M⁻¹ s⁻¹)

compound=CO[C@@H]1CN(c2ccc3nccc(C(=O)NCC(=O)N4CSC[C@H]4C#N)c3c2)[C@H]1C unit="M⁻¹ s⁻¹" val=5200000
compound=C[C@H]1COCCCN1c1ccc2nccc(C(=O)NCC(=O)N3CSC[C@H]3C#N)c2c1 unit="M⁻¹ s⁻¹" val=4100000
compound=Cc1noc(C)c1-c1ccc2nccc(C(=O)NCC(=O)N3CSC[C@H]3C#N)c2c1 unit="M⁻¹ s⁻¹" val=5200000
compound=N#C[C@@H]1CSCN1C(=O)CNC(=O)c1ccnc2ccc(-n3ccnc3-c3ccccc3)cc12 unit="M⁻¹ s⁻¹" val=1800000
compound=CC1(C)CN(c2ccc3nccc(C(=O)NCC(=O)N4CSC[C@H]4C#N)c3c2)CCC1(F)F unit="M⁻¹ s⁻¹" val=520000
compound=CC1(O)CN(c2ccc3nccc(C(=O)NCC(=O)N4CSC[C@H]4C#N)c3c2)C1 unit="M⁻¹ s⁻¹" val=1200000
compound=CC1(F)CN(c2ccc3nccc(C(=O)NCC(=O)N4CSC[C@H]4C#N)c3c2)C1 unit="M⁻¹ s⁻¹" val=25000000
compound=N#C[C@@H]1CSCN1C(=O)CNC(=O)c1ccnc2ccc(-c3cnn(C4CCOCC4)c3)cc12 unit="M⁻¹ s⁻¹" val=110000
compound=CCOC1(C)CN(c2ccc3nccc(C(=O)NCC(=O)N4CSC[C@H]4C#N)c3c2)C1 unit="M⁻¹ s⁻¹" val=1000000
compound=N#C[C@@H]1CSCN1C(=O)CNC(=O)c1ccnc2ccc(N3C[C@@H]4C[C@H]3CO4)cc12 unit="M⁻¹ s⁻¹" val=2300000
compound=N#C[C@@H]1CSCN1C(=O)CNC(=O)c1ccnc2ccc(N3CCC(F)(c4ccccc4)CC3)cc12 unit="M⁻¹ s⁻¹" val=2500000
compound=C[C@@H]1CCN(c2ccc3nccc(C(=O)NCC(=O)N4CSC[C@H]4C#N)c3c2)C1 unit="M⁻¹ s⁻¹" val=6700000
compound=C[C@@H]1OCCN(c2ccc3nccc(C(=O)NCC(=O)N4CSC[C@H]4C#N)c3c2)[C@H]1C unit="M⁻¹ s⁻¹" val=1400000
compound=N#C[C@@H]1CSCN1C(=O)CNC(=O)c1ccnc2ccc(-n3ccc4c3CCCC4)cc12 unit="M⁻¹ s⁻¹" val=2400000
compound=N#C[C@@H]1CSCN1C(=O)CNC(=O)c1ccnc2ccc(N3CC[C@H](F)C3)cc12 unit="M⁻¹ s⁻¹" val=5600000
compound=Cc1cc2nccc(C(=O)NCC(=O)N3CSC[C@H]3C#N)c2cc1N1CCOCC1 unit="M⁻¹ s⁻¹" val=370000
compound=N#C[C@@H]1CSCN1C(=O)CNC(=O)c1ccnc2ccc(N3CC(CCC(F)(F)F)C3)cc12 unit="M⁻¹ s⁻¹" val=1800000
compound=N#C[C@@H]1CSCN1C(=O)CNC(=O)c1ccnc2ccc(N3CCC(C(F)(F)F)CC3)cc12 unit="M⁻¹ s⁻¹" val=4900000
compound=N#C[C@@H]1CSCN1C(=O)CNC(=O)c1ccnc2ccc(N3C4CCC3COC4)cc12 unit="M⁻¹ s⁻¹" val=1600000
compound=CC1(C)CCCN1c1ccc2nccc(C(=O)NCC(=O)N3CSC[C@H]3C#N)c2c1 unit="M⁻¹ s⁻¹" val=8000000
compound=N#C[C@@H]1CSCN1C(=O)CNC(=O)c1ccnc2ccc(N3CCC(F)CC3)cc12 unit="M⁻¹ s⁻¹" val=2100000
compound=CC1(C)CCN(c2ccc3nccc(C(=O)NCC(=O)N4CSC[C@H]4C#N)c3c2)C1=O unit="M⁻¹ s⁻¹" val=1900000
compound=N#C[C@@H]1CSCN1C(=O)CNC(=O)c1ccnc2ccc(N3CC[C@@H](CO)C3)cc12 unit="M⁻¹ s⁻¹" val=1600000
compound=N#C[C@@H]1CSCN1C(=O)CNC(=O)c1ccnc2ccc(N3CC(CF)C3)cc12 unit="M⁻¹ s⁻¹" val=1500000
compound=N#C[C@@H]1CSCN1C(=O)CNC(=O)c1ccnc2ccc(N3CC(F)(CF)C3)cc12 unit="M⁻¹ s⁻¹" val=1900000
compound=CCC1(O)CCN(c2ccc3nccc(C(=O)NCC(=O)N4CSC[C@H]4C#N)c3c2)CC1 unit="M⁻¹ s⁻¹" val=2600000
compound="N#C[C@@H]1CSCN1C(=O)CNC(=O)c1ccnc2ccc(N3CC4CCCC4C3)cc12 (some centres unmarked)" unit="M⁻¹ s⁻¹" val=680000
compound=N#C[C@@H]1CSCN1C(=O)CNC(=O)c1ccnc2ccc(-c3cnc4n3CCCC4)cc12 unit="M⁻¹ s⁻¹" val=1400000
compound=N#C[C@@H]1CSCN1C(=O)CNC(=O)c1ccnc2ccc(N3C4CCC3CC4)cc12 unit="M⁻¹ s⁻¹" val=3200000
compound=N#C[C@@H]1CSCN1C(=O)CNC(=O)c1ccnc2ccc(N3CCOC(F)(F)C3)cc12 unit="M⁻¹ s⁻¹" val=1200000
compound=C[C@H]1CCN(c2ccc3nccc(C(=O)NCC(=O)N4CSC[C@H]4C#N)c3c2)CCO1 unit="M⁻¹ s⁻¹" val=710000
compound="C[C@@H]1CCCN(c2ccc3nccc(C(=O)NCC(=O)N4CSC[C@H]4C#N)c3c2)C1=O (single isomer, unassigned)" unit="M⁻¹ s⁻¹" val=850000
